target: beta-lactamase AmpC (Escherichia coli); test: Inhibition of Escherichia coli beta-lactamase
Attribute measured: Ki (nM)
A number alone suffices; assume nM.

Query OB(O)c1cc2cc(Cn3ccnc3)ccc2s1 on beta-lactamase AmpC (Escherichia coli); Ki returned: 82

Ki for beta-lactamase AmpC (Escherichia coli) with input Cc1ccc2sc(B(O)O)cc2c1 equals 30

Ki on beta-lactamase AmpC (Escherichia coli) for O=CNCc1ccc2sc(B(O)O)cc2c1 is 450

meta.source: BindingDB's records for doi:10.1021/jm070643q
